- Tested on: HS 578T breast
- method: NCI tumour cell line growth inhibition, 48 h
Collected TGI values appear next to each entry.

Some compounds with known TGI results, for comparison:
Cc1nc(NC(C)(CO)CO)nc(N/N=C/c2ccc(Cl)cc2)c1C(=O)Nc1ccc(Cl)cc1 : > 100 µM
C/C(=C1\N=C(c2ccccc2)OC1=O)c1ccccc1 : > 100 µM
CCOC(=O)c1c(-c2ccc(OC)cc2)ccn1C : > 10 µM

// query Need TGI, item CC1CCC2C(C)C(=O)OC2C2(C)C(=O)C=CC12 (centres undefined)
// result > 10 µM

* * *

- System: ACHN renal
- method: NCI tumour cell line growth inhibition, 48 h
experimental_readout: TGI

Some compounds with known TGI results, for comparison:
COC(=O)C1=C(CCCCO[Si](C)(C)C(C)(C)C)NC(=O)N2[C@H](CCOCc3ccccc3)CC[C@@H]12 : > 100 µM
NC(=O)[C@H](Cc1ccc(O)cc1)Nc1c(O)c2c(c(O)c1Cl)C(=O)C=CC2=O : 6.61 µM
COc1ccc(N2C(=O)C3c4[nH]c5c(C)cccc5c4C4CCC(C(C)C)CC4C3C2=O)cc1 (centres undefined) : 47.2 µM
Cc1nc(NC(C)(CO)CO)nc(N/N=C/c2ccc(Cl)cc2)c1C(=O)Nc1ccc(Cl)cc1 : > 100 µM
CC1CCC2C(C)C(=O)OC2C2(C)C(=O)C=CC12 (centres undefined) : > 10 µM
O=C1[C@@H]2[C@@H](CN3CN(c4ccccc4)N=C(c4ccccc4)[C@@]23c2ccccc2)C(=O)N1c1ccccc1 : 3.69 µM

// query Need TGI, item Cc1ccccc1NC(=O)O/N=C(\Cl)C(C)C
// result 3.13 µM

// query Need TGI, item C=C(C)C1CC(=O)C(C)=C(O)C1 (centres undefined)
// result > 100 µM

// query Need TGI, item O=C1CC23CCCCCCCCCCC2(C1)CC(=O)C3 (centres undefined)
// result > 100 µM

// query Need TGI, item COc1ccc(-c2ccc(OC)c(OC)c2OC)cc1
// result > 100 µM

// query Need TGI, item [N-]=[N+]=CC(=O)CCC(N)C(=O)O (centres undefined)
// result > 250 µM

// query Need TGI, item CC1(C)CC(C)(C)c2cc(NC(=S)Nc3ccc([N+](=O)[O-])cc3)ccc2S1
// result 24.6 µM

Source listed as PubChem BioAssay (NCI).
